The measurements presented in this section are drawn from ChEMBL document CHEMBL6092163.

Assay: Selectivity factor, ratio of IC50 for cytotoxicity against human MCF-10A cells to IC50 for antiproliferative activity against human MCF-7 cells
Format: toxicity, cell-based
Details: MCF-10A cells versus MCF-7 cells, read-out: Ratio IC50
# selectivity ratio per record follows

// solved cases for selectivity ratio follow
{"smiles.input": "C=C(C)[C@@H]1CC[C@]2(C)CC[C@]3(C)[C@H](CC[C@@H]4[C@@]5(C)CC[C@H](OC(=O)CCC[P+](CCCC)(CCCC)CCCC)C(C)(C)[C@@H]5CC[C@]43C)[C@@H]12", "test.result": 0.8}
{"smiles.input": "C=C(C)[C@@H]1CC[C@]2(C)CC[C@]3(C)[C@H](CC[C@@H]4[C@@]5(C)CC[C@H](OC(=O)CCC[P+](c6ccc(F)cc6)(c6ccc(F)cc6)c6ccc(F)cc6)C(C)(C)[C@@H]5CC[C@]43C)[C@@H]12", "test.result": 4.04}
{"smiles.input": "C=C(C)[C@@H]1CC[C@]2(C)CC[C@]3(C)[C@H](CC[C@@H]4[C@@]5(C)CC[C@H](OC(=O)CC[P+](c6ccccc6)(c6ccccc6)c6ccccn6)C(C)(C)[C@@H]5CC[C@]43C)[C@@H]12", "test.result": 0.81}

Shifting focus to the compound that follows.
Requested field: selectivity ratio. Item: "C=C(C)[C@@H]1CC[C@]2(C)CC[C@]3(C)[C@H](CC[C@@H]4[C@@]5(C)CC[C@H](OC(=O)CCCC[P+](c6ccc(OC)cc6)(c6ccc(OC)cc6)c6ccc(OC)cc6)C(C)(C)[C@@H]5CC[C@]43C)[C@@H]12"
1.23

----------
Assay: Selectivity factor, ratio of IC50 for cytotoxicity against human MCF-10A cells to IC50 for antiproliferative activity against human MCF-7 cells
Type: toxicity, cell-based
Details: MCF-10A cells versus MCF-7 cells, read-out: Ratio IC50
# selectivity ratio per record follows
When you answer, write just the number.

// solved cases for selectivity ratio follow
{"smiles.input": "C=C(C)[C@@H]1CC[C@]2(C)CC[C@]3(C)[C@H](CC[C@@H]4[C@@]5(C)CC[C@H](OC(=O)CC[P+](CCCC)(CCCC)CCCC)C(C)(C)[C@@H]5CC[C@]43C)[C@@H]12", "test.result": 1.33}
{"smiles.input": "C=C(C)[C@@H]1CC[C@]2(C)CC[C@]3(C)[C@H](CC[C@@H]4[C@@]5(C)CC[C@H](OC(=O)CCC[P+](c6ccccc6)(c6ccccc6)c6ccccn6)C(C)(C)[C@@H]5CC[C@]43C)[C@@H]12", "test.result": 1.7}

Shifting focus to the compound that follows.
Requested field: selectivity ratio. Item: "C=C(C)[C@@H]1CC[C@]2(C)CC[C@]3(C)[C@H](CC[C@@H]4[C@@]5(C)CC[C@H](OC(=O)CC[P+](CCCCCCCC)(CCCCCCCC)CCCCCCCC)C(C)(C)[C@@H]5CC[C@]43C)[C@@H]12"
1.22

----------
# selectivity ratio per record follows
Experiment: Selectivity factor, ratio of IC50 for cytotoxicity against human MRC5 cells to IC50 for antiproliferative activity against human A549 cells
Type: toxicity, cell-based
Settings: MRC5 cells versus A549 cells, read-out: Ratio IC50
When you answer, write just the number.

// solved cases for selectivity ratio follow
{"smiles.input": "C=C(C)[C@@H]1CC[C@]2(C)CC[C@]3(C)[C@H](CC[C@@H]4[C@@]5(C)CC[C@H](OC(=O)CC[P+](c6ccc(Cl)cc6)(c6ccc(Cl)cc6)c6ccc(Cl)cc6)C(C)(C)[C@@H]5CC[C@]43C)[C@@H]12", "selectivity ratio": 5.4}
{"smiles.input": "C=C(C)[C@@H]1CC[C@]2(C)CC[C@]3(C)[C@H](CC[C@@H]4[C@@]5(C)CC[C@H](OC(=O)CCC[P+](c6ccccc6)(c6ccccc6)c6ccccn6)C(C)(C)[C@@H]5CC[C@]43C)[C@@H]12", "selectivity ratio": 8.96}
{"smiles.input": "C=C(C)[C@@H]1CC[C@]2(C)CC[C@]3(C)[C@H](CC[C@@H]4[C@@]5(C)CC[C@H](OC(=O)NCCCC[P+](c6ccccc6)(c6ccccc6)C6CCCCC6)C(C)(C)[C@@H]5CC[C@]43C)[C@@H]12", "selectivity ratio": 6.12}

Requested field: selectivity ratio. Item: "C=C(C)[C@@H]1CC[C@]2(C)CC[C@]3(C)[C@H](CC[C@@H]4[C@@]5(C)CC[C@H](OC(=O)CC[P+](c6ccc(F)cc6)(c6ccc(F)cc6)c6ccc(F)cc6)C(C)(C)[C@@H]5CC[C@]43C)[C@@H]12"
19
